Exercise: for every item that follows, state its recorded aptazyme ON/OFF ratio.
B1: Pistol ribozyme (parent)
chain: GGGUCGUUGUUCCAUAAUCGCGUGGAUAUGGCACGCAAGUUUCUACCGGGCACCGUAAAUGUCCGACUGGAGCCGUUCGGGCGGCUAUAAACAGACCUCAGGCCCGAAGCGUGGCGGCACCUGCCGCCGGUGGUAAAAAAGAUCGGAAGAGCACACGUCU

- Variants of: B1
- methodSummary: aptazyme ON/OFF ratio, guanine; higher = stronger switching; co-transcriptional cleavage with and without guanine
One number for each entry.

Solved entries (count: 2):
1. U7G U8C U10C C12G C13G :: 1.24
2. U7C G9U U10G U11A C12U :: 1.08

Below are 3 variants. Give each one its aptazyme ON/OFF ratio.
1. U7A U8A U11C C13A
2. U7C U10G U11C C12U C13G
3. U7A U8G G9U U10A U11A C12G C13A

stdout:
1.4
1.16
1.36
